target: purified human HDAC6 (Homo sapiens); construct: purchased BPS Bioscience 5006; assay: HDAC6 Enzyme Assay; format: biochemical; settings: compound concentration 0.412 μM, read-out: Percent Inhibition
Can you tell me inhibition at 0.412 µM for the items I'm about to list?

For each of the compounds below, state inhibition at 0.412 µM.
1. O=C(NO)c1ccc2ncn(Cc3csc4ccc(Cl)cc34)c(=O)c2c1
2. O=C(NO)c1ccc2ccn(CCCOc3ccccc3-c3csnn3)c(=O)c2c1
3. COc1ccc(CCCn2ccc3ccc(C(=O)NO)cc3c2=O)cc1
4. CC(C)n1cnc2ccc(C(=O)NO)cc2c1=O
5. CC(C)n1cnc2cc(C(=O)NO)ccc2c1=O

Response:
1. 94.1%
2. 87.4%
3. 96.5%
4. 71.9%
5. 72%

Below are some compounds; for each one, tell me its inhibition at 0.412 µM.
1. O=C(NO)c1ccc2ccn(Cc3cc(F)ccc3F)c(=O)c2c1
2. O=C(NO)c1ccc2ccn(Cc3c(F)cccc3Cl)c(=O)c2c1
3. Cc1nn(-c2ccccc2)nc1Cn1ccc2ccc(C(=O)NO)cc2c1=O
4. COc1cc(OC)cc(OCCn2ccc3ccc(C(=O)NO)cc3c2=O)c1

Response:
["96.4%", "95.1%", "98.6%", "95.7%"]

* * *

I'd appreciate it if you could supply inhibition at 0.412 µM values for the items below.
target: purified human HDAC6 (Homo sapiens, UniProt Q9UBN7); construct: purchased BPS Bioscience 5006; assay: HDAC6 Enzyme Assay; format: biochemical; conditions: compound concentration 0.412 μM, read-out: Percent Inhibition
Sequence (Q9UBN7 whole entry): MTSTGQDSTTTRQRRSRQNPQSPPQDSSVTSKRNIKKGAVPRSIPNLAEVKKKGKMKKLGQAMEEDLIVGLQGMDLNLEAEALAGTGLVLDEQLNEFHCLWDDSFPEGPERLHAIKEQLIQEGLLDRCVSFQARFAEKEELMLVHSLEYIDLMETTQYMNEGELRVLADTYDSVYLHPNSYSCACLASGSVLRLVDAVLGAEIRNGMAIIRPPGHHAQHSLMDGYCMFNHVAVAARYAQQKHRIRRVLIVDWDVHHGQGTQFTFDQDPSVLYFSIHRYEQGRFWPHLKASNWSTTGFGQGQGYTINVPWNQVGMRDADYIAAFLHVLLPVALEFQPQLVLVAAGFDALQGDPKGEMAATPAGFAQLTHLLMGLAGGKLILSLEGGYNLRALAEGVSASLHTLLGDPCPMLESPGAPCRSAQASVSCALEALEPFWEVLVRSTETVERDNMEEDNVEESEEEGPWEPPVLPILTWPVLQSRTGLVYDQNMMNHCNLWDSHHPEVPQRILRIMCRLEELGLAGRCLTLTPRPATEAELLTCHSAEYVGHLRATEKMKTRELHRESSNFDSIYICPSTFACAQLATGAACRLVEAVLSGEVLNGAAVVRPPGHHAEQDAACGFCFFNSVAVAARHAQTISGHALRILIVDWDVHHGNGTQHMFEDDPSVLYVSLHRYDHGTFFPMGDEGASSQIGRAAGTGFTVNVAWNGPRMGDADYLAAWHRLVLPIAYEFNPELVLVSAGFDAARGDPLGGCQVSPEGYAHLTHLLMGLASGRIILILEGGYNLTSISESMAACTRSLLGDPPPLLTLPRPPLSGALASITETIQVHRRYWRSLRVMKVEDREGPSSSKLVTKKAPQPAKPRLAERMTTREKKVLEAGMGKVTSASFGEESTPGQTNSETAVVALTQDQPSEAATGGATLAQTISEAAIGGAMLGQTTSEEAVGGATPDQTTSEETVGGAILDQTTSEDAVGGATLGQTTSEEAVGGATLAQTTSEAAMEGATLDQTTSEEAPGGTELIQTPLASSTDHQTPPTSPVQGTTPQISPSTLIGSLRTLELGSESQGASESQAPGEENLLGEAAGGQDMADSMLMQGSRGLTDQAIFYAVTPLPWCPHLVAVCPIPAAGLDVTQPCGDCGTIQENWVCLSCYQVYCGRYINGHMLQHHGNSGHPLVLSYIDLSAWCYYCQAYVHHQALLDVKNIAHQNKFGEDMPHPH
One number for each entry, in %.

Cn1c(NCc2ccc(Cl)cc2)nc2cc(C(=O)NO)ccc2c1=O; 78.5
O=C(NO)c1ccc2ccn(CCCOc3ccc4c(c3)CCC4)c(=O)c2c1; 94.4
O=C(NO)c1ccc2ccn(Cc3cccc(F)c3)c(=O)c2c1; 95.9
O=C(NO)c1ccc2ncn(Cc3cccc(F)c3)c(=O)c2c1; 93.5
CC(C)(C)c1cccc(OCc2nc3cc(C(=O)NO)ccc3c(=O)[nH]2)c1; 30.6

Dear colleague, could you send me inhibition at 0.412 µM for each of the items below? Thanks.
1. CC(C)(C)c1ccc(Cn2cnc3ccc(C(=O)NO)cc3c2=O)cc1
2. O=C(NO)c1ccc2c(=O)n(-c3ccccc3)c(=O)[nH]c2c1
3. O=C(NO)c1ccc2c(=O)n(CCc3ccccn3)c(C3CCCCC3)nc2c1

Response:
94.9
16.1
77.7

Parameters: items (list). Returns: inhibition at 0.412 µM for each item.
1. COc1ccc(CCn2ccc3ccc(C(=O)NO)cc3c2=O)cc1
2. O=C(NO)c1ccc2ccn(Cc3ccc(C(F)(F)F)cc3)c(=O)c2c1

Response:
95.3
94.6

Parameter requested: inhibition at 0.412 µM. Apply to each item below.
1. CCC(CC)Cn1ccc2ccc(C(=O)NO)cc2c1=O
2. O=C(NO)c1ccc2c(=O)[nH]c(C(=O)NCc3ccc(Cl)cc3)nc2c1
3. CC(C)(C)OC(=O)N1CCC(CCn2ccc3ccc(C(=O)NO)cc3c2=O)CC1

Response:
1. 93
2. 61.7
3. 80.4

Provide inhibition at 0.412 µM values for the following items, in order.
1. CCC(C)Cn1ccc2ccc(C(=O)NO)cc2c1=O (stereo not drawn)
2. COc1ccc(OCCn2ccc3ccc(C(=O)NO)cc3c2=O)cc1

Response:
85.6
96.8

* * *

biological target: purified human HDAC6 (Homo sapiens, UniProt Q9UBN7); construct: purchased BPS Bioscience 5006; assay: HDAC6 Enzyme Assay; format: biochemical; conditions: compound concentration 0.412 μM, read-out: Percent Inhibition
Tag: 1.0 if measured inhibition at 0.412 µM is not below 80%, 0.0 if it is.

Query: Threshold query (inhibition at 0.412 µM >= 80%) on O=C(NO)c1ccc2ncn(Cc3ccc(F)cc3)c(=O)c2c1
Response: 1.0

Query: Same again, this time with NCCn1ccc2ccc(C(=O)NO)cc2c1=O
Response: 0.0

Query: Continue with Cc1ccc(OCCCn2ccc3ccc(C(=O)NO)cc3c2=O)cc1
Response: 1.0

Query: Field entry: CS(=O)(=O)c1ccc(Cn2ccc3ccc(C(=O)NO)cc3c2=O)cc1
Response: 1.0

Query: Try this molecule too: CC(C)Cc1nc2cc(C(=O)NO)ccc2c(=O)n1Cc1ccc(C(F)(F)F)cc1
Response: 0.0

Query: Now consider O=C(NO)c1ccc2ccn(CCNc3cccc(-n4cccn4)c3)c(=O)c2c1 .
Response: 1.0

Query: Can you handle O=C(NO)c1ccc2ncn(Cc3nc4ccccc4s3)c(=O)c2c1 next?
Response: 0.0

Query: Repeat for the following molecule: O=C(NO)c1ccc2c(=O)n(-c3ccc(Cl)cc3)c(=O)[nH]c2c1
Response: 0.0

Query: Try this molecule too: O=C(NO)c1ccc2ccn(Cc3ccccc3)c(=O)c2c1
Response: 1.0

Query: Same thing, different molecule: CC(C)Nc1nc2cc(C(=O)NO)ccc2c(=O)n1C
Response: 0.0

Query: Please do the same for O=C(NO)c1ccc2ccn(CCNCc3cccc(C(F)(F)F)c3)c(=O)c2c1 as well.
Response: 1.0

Query: Please answer likewise for O=C(NO)c1ccc2c(=O)n(Cc3ccc(F)cc3)cnc2c1
Response: 1.0

Query: Again, but for CC1(C)CCC(C)(C)c2cc(Cn3ccc4ccc(C(=O)NO)cc4c3=O)ccc21
Response: 1.0

Query: Now try COc1ccccc1OCCn1ccc2ccc(C(=O)NO)cc2c1=O .
Response: 1.0

Query: Then O=C(NO)c1ccc2ccn(Cc3cccc(Cl)c3)c(=O)c2c1 ?
Response: 1.0

* * *

Kindly state inhibition at 0.37 µM for each of the entries shown.
target: purified human HDAC6 (Homo sapiens); construct: purchased BPS Bioscience 5006; assay: HDAC6 Enzyme Assay; type: biochemical; details: compound concentration 0.37 μM, read-out: Percent Inhibition
Numbers only, in %.

O=C(NO)c1ccc2c(Br)cn(Cc3ccccc3)c(=O)c2c1 [Compound I-292]; 82.8

Batch of 2 compounds: report inhibition at 0.37 µM for each.
1. O=C(NO)c1ccc2ncn(CCNCc3cccc(-n4cccn4)c3)c(=O)c2c1 [Compound I-332]
2. O=C(NO)c1ccc2ccn(CCC3CCNCC3)c(=O)c2c1 [Compound I-343]

Response:
90.4
91.3

Would you mind giving inhibition at 0.37 µM for every compound in the list below?
1. O=C(NO)c1ccc2ncn(CCc3cccc(-c4c(F)cccc4F)c3)c(=O)c2c1 [Compound I-347]
2. O=C(NO)c1ccc2c(=O)[nH]c(C3CCCC3)nc2c1 [Compound I-420]
3. COc1ncccc1-c1cccc(CCn2cnc3ccc(C(=O)NO)cc3c2=O)c1 [Compound I-320]
4. CN(C)S(=O)(=O)c1cccc(-c2cccc(Cn3cnc4ccc(C(=O)NO)cc4c3=O)c2)c1 [Compound I-244]
5. Cc1ccc(CCc2nc3cc(C(=O)NO)ccc3c(=O)[nH]2)o1 [Compound I-412]
6. CC(C)c1cccc(-c2cccc(CCn3cnc4ccc(C(=O)NO)cc4c3=O)c2)c1 [Compound I-342]
7. O=C(NO)c1ccc2ncn(Cc3cccc(-c4c(Cl)cccc4Cl)c3)c(=O)c2c1 [Compound I-23]
8. O=C(NO)c1ccc2ccn(-c3ccccc3F)c(=O)c2c1 [Compound I-346]

Response:
63.7
85.3
90.4
89.4
93
69.5
92.2
87

Working through the 2 compounds below one at a time, give inhibition at 0.37 µM for each.
1. O=C(NO)c1ccc2ncn(CCc3cccc(-c4cccc(OC(F)(F)F)c4)c3)c(=O)c2c1 [Compound I-312]
2. O=C(NO)c1ccc2c(=O)n(Cc3ccc(C(F)(F)F)cc3)c(C3CCCC3)nc2c1 [Compound I-106]

Response:
76.2
78.5

* * *

target: purified human HDAC6 (Homo sapiens, UniProt Q9UBN7); construct: purchased BPS Bioscience 5006; experiment: HDAC6 Enzyme Assay; assay type: biochemical; details: compound concentration 0.412 μM, read-out: Percent Inhibition
For each entry below, report its inhibition at 0.412 µM value.
Numbers only, in %.

Cc1ccccc1Cn1ccc2ccc(C(=O)NO)cc2c1=O [Compound I-157]; 94.8
COc1ccc(Nc2nc3cc(C(=O)NO)ccc3c(=O)n2C)cc1 [Compound I-49]; 55
O=C(NO)c1ccc2c(=O)[nH]c(COc3ccc4c(c3)OCO4)nc2c1 [Compound I-66]; 89.5
COc1ccc(OCCCn2ccc3ccc(C(=O)NO)cc3c2=O)cc1 [Compound I-3]; 95.8

Hello, I would appreciate it if you could give inhibition at 0.412 µM for each entry below.
1. O=C(NO)c1ccc2ncn(Cc3cccc(-c4ccncc4)c3)c(=O)c2c1 [Compound I-128]
2. O=C(NO)c1ccc2ccn(CCOc3cccc(OCc4ccccc4)c3)c(=O)c2c1 [Compound I-258]
3. O=C(NO)c1ccc2c(=O)n(-c3ccc(Cl)cc3)c(NCc3ccc(Cl)cc3)nc2c1 [Compound I-262]
4. Cc1ccccc1OCc1nc2cc(C(=O)NO)ccc2c(=O)[nH]1 [Compound I-29]

Response:
[95.9, 93.9, 68.2, 78.9]
